# log10 of IC50 per entry
Experimental system: recombinant His-tag Wip1(2-420) protein (amino acids #2-420) (Homo sapiens (Human), UniProt O15297)
Sequence (O15297 2-420): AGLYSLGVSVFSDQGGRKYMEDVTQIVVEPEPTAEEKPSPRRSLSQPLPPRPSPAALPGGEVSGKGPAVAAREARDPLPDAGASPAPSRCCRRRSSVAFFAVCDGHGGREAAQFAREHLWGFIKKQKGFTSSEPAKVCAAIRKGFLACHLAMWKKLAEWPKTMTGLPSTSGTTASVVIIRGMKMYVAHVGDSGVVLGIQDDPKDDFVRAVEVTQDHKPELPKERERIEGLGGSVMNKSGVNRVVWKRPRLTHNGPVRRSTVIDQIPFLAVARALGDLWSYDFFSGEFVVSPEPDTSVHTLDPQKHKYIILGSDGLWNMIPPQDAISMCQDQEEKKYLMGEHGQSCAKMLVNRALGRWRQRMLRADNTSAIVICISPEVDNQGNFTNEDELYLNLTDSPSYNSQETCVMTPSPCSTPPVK
Assay notes: Wip1(2-420) phosphatase enzyme FDP assay
Reported conditions: fluorescein diphosphate (FDP) substrate, RT 2 hours, fluorescence Ex485/Em535; read-out: WIP1 (Truncated 2-420) FDP Assay: IC50
Parameter value (number): base-10 log of IC50 in nM.

A selection of reference data follows.
{"Molecule": "COc1ncc(Cl)cc1N[C@@H](C)c1ccc(C(=O)N[C@@H](CC2CCCC2)C(=O)NC23CC(C2)C3)s1", "Recorded measurement": 0.78}
{"Molecule": "C[C@@H](c1ccc(C(=O)N[C@@H](CC2CCCC2)C(=O)NC2CC2)s1)N(C)c1cncc(Cl)c1", "Recorded measurement": 2.01}

For reference, reported log10 of IC50 for C[C@@H](Nc1cc(Cl)cnc1C(F)(F)F)c1ccc(C(=O)N[C@@H](CC2CCCC2)C(=O)NC2CC2)s1 stands at 2.35

For reference, reported log10 of IC50 for Cc1ncc(Cl)cc1N[C@@H](Cc1ccccc1)c1ccc(C(=O)N[C@@H](CC2CCCC2)C(=O)NC2CC2)s1 stands at 0.78

For reference, reported log10 of IC50 for Cc1ncc(Cl)cc1N[C@@H](C)c1ccc(C(=O)N[C@@H](CC2CCC3CC32)C(=O)NC23CC(C2)C3)s1 (some centres unmarked) stands at 0.78

For reference, reported log10 of IC50 for Cc1ncc(Cl)cc1N[C@@H](C)c1ccc(C(=O)N[C@@H](CC2CCCC2)C(=O)NC2CC3CCC(C2)O3)s1 (some centres unmarked) stands at 1.18

For reference, reported log10 of IC50 for CC(c1ccc(C(=O)N[C@@H](CC2CCCC2)C(=O)NC2CC2)s1)N1CCc2cc(F)c(Cl)cc21 (some centres unmarked) stands at 1.20
